# System: HOP-92
# EXPERIMENTAL DETAILS: NCI tumour cell line growth inhibition, 48 h
Active and inactive are the calls of the source. Rule as the data show it: active = GI50 up to about 1.1 µM and inactive = higher.
The reply should be one of these categories: active, inactive

compound=COC(=O)c1n[nH]c(C)c1/N=N/N(C)CCC#N group_label=inactive
compound="O=C1OC(c2ccccc2)=NC1c1ccccc1 (configuration not stated)" group_label=inactive
compound=[N-]=[N+]=Nc1ccc(CNc2cc(=O)[nH]c(=O)[nH]2)cc1 group_label=inactive
compound="O=C1CSC2(CC(/C=C/c3ccccc3Br)=NN2c2cccc(S(=O)(=O)O)c2)N1c1nc2ccccc2s1 (configuration not stated)" group_label=inactive
compound="NC(CCCCP(=O)(O)O)C(=O)O (configuration not stated)" group_label=inactive
compound=O=C1C(Cl)=C(N2CCOCC2)C(=O)c2c(O)ccc(O)c21 group_label=active

q: What classification did c1ccc2c3ccn4ccc5c6ccccc6[nH]c5c4c-3nc2c1 end up with in this test?
a: inactive
